Recorded values, source paper PMC9385959.

- tested_on: Fel d 4 (Felis catus, UniProt Q5VFH6)
- Construct: polyhistidine tag (C); made in house; host or cells: E. coli Rosetta-gami 2
- measurement_description: Competitive fluorescence-quenching assay, Fel d 4
- Type: binding, cat
- recorded_conditions: 5 μM Fel d 4-1-NPN complex, 100 μM ligand; read-out: Mean fluorescence inhibition
experimental_readout: inhibition at 100 µM (%)
The reply should be a number in %, with the unit left off.

The examples below pair each entry with its known result.
COc1nccnc1CC(C)C; 96.8
CC(C)CCCC(C)CCO (stereo not shown); 89.5
CC(C)c1cccc(O)c1; 89.5

Consider the record given below.
Entry `CC(C)c1ccccc1O` , tested on Fel d 4 (Felis catus, UniProt Q5VFH6), has a reported inhibition at 100 µM of 99.5

* * *

Entries with reported Ki on Fel d 4 (Felis catus, UniProt Q5VFH6)
Hi! Could you send only the number? It should be in µM, unit omitted.

Tested system Fel d 4 (Felis catus, UniProt Q5VFH6); Ki recorded for `CC(C)c1ccccc1O` was 20.1

For the molecule `COc1nccnc1CC(C)C` , the measured Ki on Fel d 4 (Felis catus, UniProt Q5VFH6) was 39.2

* * *

- tested_on: Can f 1 (Canis lupus familiaris, UniProt O18873)
- Construct: made in house; host or cells: E. coli Rosetta-gami 2(DE3)
- measurement_description: Competitive fluorescence-quenching assay, Can f 1
- Format: binding, dog
- recorded_conditions: 5 μM Can f 1, fluorochrome 1,8-ANS; read-out: Ligand inhibition constant Ki
experimental_readout: Ki

Recorded result, CCCCCCCCCCCCCC(=O)O [Tetradecanoic acid, tetradecanoic acid] , Ki: 7.4 µM
